test system: Trypanosoma cruzi; assay: Percentage delyse against amastigote forms of Y strain of Trypanosoma cruzi at 2 uM; format: functional
Result Type: Delyse (%)
// units = %; emit number, no label

c1ccc(COC2OC[C@H](Cc3ccc4c(c3)OCO4)[C@@H]2Cc2ccc3c(c2)OCO3)cc1 (stereo partly specified)    38
CN(C)CCOC1OC[C@H](Cc2ccc3c(c2)OCO3)[C@@H]1Cc1ccc2c(c1)OCO2 (stereo partly specified)    55.4
O=C1OC[C@H](Cc2ccc3c(c2)OCO3)[C@@H]1Cc1ccc2c(c1)OCO2    57
O=C1OC[C@H](Cc2cc3c(cc2[N+](=O)[O-])OCO3)[C@@H]1Cc1cc2c(cc1[N+](=O)[O-])OCO2    48.7

QUERY: Using the record for CC(=O)OC1OC[C@H](Cc2ccc3c(c2)OCO3)[C@@H]1Cc1ccc2c(c1)OCO2 (stereo partly specified) , state its measured Delyse.
RESULT: 26

QUERY: Using the record for O=C(Cn1ccnc1[N+](=O)[O-])NCc1ccccc1 [BENZNIDAZOLE] , state its measured Delyse.
RESULT: 67
